Just for reference, patent US20030215462A1 is where these values come from.

Reported values of activity at 15 min, 50 µM for individual entries
# target_or_test_system: UGT1A8 (Homo sapiens)
# Sequence (Q9HAW9 26-530): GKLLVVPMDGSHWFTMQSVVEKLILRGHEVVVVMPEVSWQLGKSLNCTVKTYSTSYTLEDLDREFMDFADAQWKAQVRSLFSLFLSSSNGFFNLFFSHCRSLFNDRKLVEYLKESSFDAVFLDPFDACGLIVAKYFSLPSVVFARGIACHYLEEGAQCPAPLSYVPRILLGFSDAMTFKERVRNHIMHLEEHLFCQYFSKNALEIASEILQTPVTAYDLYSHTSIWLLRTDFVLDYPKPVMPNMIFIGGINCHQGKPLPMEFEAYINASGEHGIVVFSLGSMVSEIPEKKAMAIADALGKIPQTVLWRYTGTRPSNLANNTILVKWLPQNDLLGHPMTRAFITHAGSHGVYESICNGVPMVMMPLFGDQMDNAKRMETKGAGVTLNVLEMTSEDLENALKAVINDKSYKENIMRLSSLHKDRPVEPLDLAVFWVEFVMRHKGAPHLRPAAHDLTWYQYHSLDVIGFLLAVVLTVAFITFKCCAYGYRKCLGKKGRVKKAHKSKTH
# method_description: in vitro
# condition_label: pH 7.5, % of control metabolism, raloxifene G2

{"compound": "O=C(O[C@@H]1Cc2c(O)cc(O)cc2O[C@@H]1c1ccc(O)c(O)c1)c1cc(O)c(O)c(O)c1 [Epicatechin gallate]", "unit_abbrev": "%", "activity at 15 min, 50 µM": 53}
{"compound": "C=CCc1ccc(O)c(OC)c1", "unit_abbrev": "%", "activity at 15 min, 50 µM": 103}
{"compound": "O=c1c(O)c(-c2ccc(O)c(O)c2)oc2cc(O)cc(O)c12", "unit_abbrev": "%", "activity at 15 min, 50 µM": 81}
{"compound": "O=C(O)c1cc(-c2ccc(F)cc2F)ccc1O [Diflunisal, reference compound]", "unit_abbrev": "%", "activity at 15 min, 50 µM": 126}

---

# System: UGT enzymes of human liver microsomes
# Construct: percentage of control metabolism, 7-HFC glucuronidation; percentage of control metabolism, 7-HFC glucuronidation
# method_description: Inhibition of 7-HFC glucuronidation in human liver microsomes
# Assay type: biochemical
# condition_label: inhibitor 500 μM; 7-HFC 50 μM, human liver microsomes 100 μg/ml, 15 min
recorded_metric: % of control metabolism (SD, n = 3), 7-HFC glucuronidation

{"compound": "C=CC[C@@H]1/C=C(\\C)C[C@H](C)C[C@H](OC)[C@H]2O[C@@](O)(C(=O)C(=O)N3CCCC[C@H]3C(=O)O[C@H](/C(C)=C/[C@@H]3CC[C@@H](O)[C@H](OC)C3)[C@H](C)[C@@H](O)CC1=O)[C@H](C)C[C@@H]2OC", "obs_value": "126 (4) %"}
{"compound": "Cc1cn([C@H]2C[C@H](N=[N+]=[N-])[C@@H](CO)O2)c(=O)[nH]c1=O [Zidovudine, zidovudine, reference compound]", "obs_value": "99 (1) %"}
{"compound": "CCCCCCCCCCCCCCCC(=O)OCC [Ethyl palmitate]", "obs_value": "89 (3) %"}

---

# Tested on: UGT enzymes of human liver microsomes
# Construct: percentage of control metabolism, 7-HFC glucuronidation; percentage of control metabolism, 7-HFC glucuronidation
# method_description: Inhibition of 7-HFC glucuronidation in human liver microsomes
# Type: biochemical
# condition_label: inhibitor 50 μM
// values below are reported percentage of control metabolism, 7-HFC glucuronidation
recorded_metric: percentage of control metabolism, 7-HFC glucuronidation

{"molecule": "CCCCCCCCOC(=O)c1cc(O)c(O)c(O)c1 [Octyl gallate]", "target_or_test_system": "UGT enzymes of human liver microsomes", "obs_value": "65 (0) %"}
{"molecule": "CC/C(=C(/CC)c1ccc(O)cc1)c1ccc(O)cc1 [Diethylstilbestrol, reference compound]", "target_or_test_system": "UGT enzymes of human liver microsomes", "obs_value": "34 (2) %"}
{"molecule": "COc1cc(CNC(=O)CCCC/C=C/C(C)C)ccc1O", "target_or_test_system": "UGT enzymes of human liver microsomes", "obs_value": "69 (1) %"}
{"molecule": "CCCCCCCCCCCCOC(=O)c1cc(O)c(O)c(O)c1 [Lauryl gallate]", "target_or_test_system": "UGT enzymes of human liver microsomes", "obs_value": "76 (2) %"}
{"molecule": "O=C(O[C@@H]1Cc2c(O)cc(O)cc2O[C@H]1c1cc(O)c(O)c(O)c1)c1cc(O)c(O)c(O)c1 [Gallocatechin gallate]", "target_or_test_system": "UGT enzymes of human liver microsomes", "obs_value": "68 (2) %"}
{"molecule": "O=C(OC[C@H]1O[C@@H](OC(=O)c2cc(O)c(O)c(OC(=O)c3cc(O)c(O)c(O)c3)c2)[C@H](OC(=O)c2cc(O)c(O)c(OC(=O)c3cc(O)c(O)c(O)c3)c2)[C@@H](OC(=O)c2cc(O)c(O)c(OC(=O)c3cc(O)c(O)c(O)c3)c2)[C@@H]1OC(=O)c1cc(O)c(O)c(OC(=O)c2cc(O)c(O)c(O)c2)c1)c1cc(O)c(O)c(OC(=O)c2cc(O)c(O)c(O)c2)c1", "target_or_test_system": "UGT enzymes of human liver microsomes", "obs_value": "2 (0) %"}

---

Collected residual metabolism (% of control), E2-3-β-D-glucuronide values appear next to each entry.
# Test system: UGT enzymes of human liver microsomes
# Construct: residual metabolism (% of control), E2-3-β-D-glucuronide; other: liver 032101; residual metabolism (% of control), E2-3-β-D-glucuronide
# method_description: Inhibition of estradiol (E2) glucuronidation in human liver microsomes
# Format: biochemical
# condition_label: liver 032101; E2 50 μM; inhibitor 50 μM
recorded_metric: residual metabolism (% of control), E2-3-β-D-glucuronide

{"compound": "O=C(O[C@@H]1Cc2c(O)cc(O)cc2O[C@H]1c1cc(O)c(O)c(O)c1)c1cc(O)c(O)c(O)c1 [Gallocatechin gallate]", "obs_value": "24 (1) %"}
{"compound": "CCCCCCCCOC(=O)c1cc(O)c(O)c(O)c1 [Octyl gallate]", "obs_value": "53 (1) %"}
{"compound": "O=C(O[C@@H]1Cc2c(O)cc(O)cc2O[C@@H]1c1ccc(O)c(O)c1)c1cc(O)c(O)c(O)c1 [Epicatechin gallate]", "obs_value": "27 (1) %"}
{"compound": "O=c1c(O)c(-c2ccc(O)c(O)c2)oc2cc(O)cc(O)c12", "obs_value": "29 (1) %"}
{"compound": "O=C(O[C@@H]1Cc2c(O)cc(O)cc2O[C@@H]1c1cc(O)c(O)c(O)c1)c1cc(O)c(O)c(O)c1 [Epigallocatechin gallate]", "obs_value": "46 (1) %"}

---

Listed next: entries and their corresponding % of control metabolism (SD, n = 3), 7-HFC glucuronidation.
# System: UGT enzymes of human liver microsomes
# Construct: percentage of control metabolism, 7-HFC glucuronidation; percentage of control metabolism, 7-HFC glucuronidation
# method_description: Inhibition of 7-HFC glucuronidation in human liver microsomes
# Assay type: biochemical
# condition_label: inhibitor 25 μM; 7-HFC 50 μM, human liver microsomes 100 μg/ml, 15 min
recorded_metric: % of control metabolism (SD, n = 3), 7-HFC glucuronidation

{"compound": "CC/C(=C(/CC)c1ccc(O)cc1)c1ccc(O)cc1 [Diethylstilbestrol, reference compound]", "target_or_test_system": "UGT enzymes of human liver microsomes", "obs_value": "57 (1) %"}
{"compound": "CCCCCCCCOC(=O)c1cc(O)c(O)c(O)c1 [Octyl gallate]", "target_or_test_system": "UGT enzymes of human liver microsomes", "obs_value": "86 (1) %"}
{"compound": "CCCCCCCCCCCCOC(=O)c1cc(O)c(O)c(O)c1 [Lauryl gallate]", "target_or_test_system": "UGT enzymes of human liver microsomes", "obs_value": "92 (3) %"}
{"compound": "O=C(O[C@@H]1Cc2c(O)cc(O)cc2O[C@H]1c1cc(O)c(O)c(O)c1)c1cc(O)c(O)c(O)c1 [Gallocatechin gallate]", "target_or_test_system": "UGT enzymes of human liver microsomes", "obs_value": "80 (2) %"}

---

Entries and their measured activity at 15 min, 25 µM follow.
# target_or_test_system: UGT1A10 (Homo sapiens, UniProt Q9HAW8)
# Sequence (Q9HAW8 26-530): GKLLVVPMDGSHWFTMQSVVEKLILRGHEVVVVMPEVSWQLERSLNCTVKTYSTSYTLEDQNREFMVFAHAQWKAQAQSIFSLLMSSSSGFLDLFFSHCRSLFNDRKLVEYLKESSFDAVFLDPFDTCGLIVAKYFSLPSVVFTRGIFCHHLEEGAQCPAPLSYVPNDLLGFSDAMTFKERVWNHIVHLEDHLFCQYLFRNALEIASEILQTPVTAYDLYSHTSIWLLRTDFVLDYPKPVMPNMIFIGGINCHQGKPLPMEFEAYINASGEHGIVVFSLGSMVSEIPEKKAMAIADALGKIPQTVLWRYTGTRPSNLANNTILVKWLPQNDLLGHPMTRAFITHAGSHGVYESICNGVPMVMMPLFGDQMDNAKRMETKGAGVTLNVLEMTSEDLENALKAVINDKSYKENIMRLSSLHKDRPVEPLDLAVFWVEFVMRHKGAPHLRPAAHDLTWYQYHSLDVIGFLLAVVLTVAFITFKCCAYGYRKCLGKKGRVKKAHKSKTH
# method_description: Inhibition of raloxifene glucuronidation by recombinant UGT1A10 Bacculosomes
# condition_label: human, Bacculosomes with recombinant human UGT1A10, pH 7.5, probe raloxifene 50 μM, formation of glucuronide G1, % of control metabolism, raloxifene G1, UGT1A10; inhibitor 25 μM

{"compound": "O=C(O[C@@H]1Cc2c(O)cc(O)cc2O[C@H]1c1cc(O)c(O)c(O)c1)c1cc(O)c(O)c(O)c1 [Gallocatechin gallate]", "target_or_test_system": "UGT1A10 (Homo sapiens, UniProt Q9HAW8)", "activity at 15 min, 25 µM (%)": 64}
{"compound": "O=C(OC[C@H]1O[C@@H](OC(=O)c2cc(O)c(O)c(OC(=O)c3cc(O)c(O)c(O)c3)c2)[C@H](OC(=O)c2cc(O)c(O)c(OC(=O)c3cc(O)c(O)c(O)c3)c2)[C@@H](OC(=O)c2cc(O)c(O)c(OC(=O)c3cc(O)c(O)c(O)c3)c2)[C@@H]1OC(=O)c1cc(O)c(O)c(OC(=O)c2cc(O)c(O)c(O)c2)c1)c1cc(O)c(O)c(OC(=O)c2cc(O)c(O)c(O)c2)c1", "target_or_test_system": "UGT1A10 (Homo sapiens, UniProt Q9HAW8)", "activity at 15 min, 25 µM (%)": 56}

---

# target_or_test_system: UniProtKB P22309
# Sequence (P22309 26-533): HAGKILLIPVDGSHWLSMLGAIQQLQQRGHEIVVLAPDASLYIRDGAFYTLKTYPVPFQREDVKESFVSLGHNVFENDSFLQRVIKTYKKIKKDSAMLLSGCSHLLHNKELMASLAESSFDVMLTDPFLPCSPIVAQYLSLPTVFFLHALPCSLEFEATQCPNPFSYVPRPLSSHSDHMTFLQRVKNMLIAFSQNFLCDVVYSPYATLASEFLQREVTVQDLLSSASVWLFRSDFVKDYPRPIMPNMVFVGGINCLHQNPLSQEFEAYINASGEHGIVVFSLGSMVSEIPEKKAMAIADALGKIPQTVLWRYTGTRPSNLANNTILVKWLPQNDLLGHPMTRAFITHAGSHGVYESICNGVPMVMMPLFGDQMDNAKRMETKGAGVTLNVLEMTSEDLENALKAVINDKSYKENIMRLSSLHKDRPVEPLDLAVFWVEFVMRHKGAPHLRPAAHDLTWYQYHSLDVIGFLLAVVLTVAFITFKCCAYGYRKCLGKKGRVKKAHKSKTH
# method_description: Inhibition of raloxifene glucuronidation by recombinant UGT1A1 Supersomes
# condition_label: human, Supersomes with recombinant human UGT1A1, pH 7.5, probe raloxifene 50 μM, formation of glucuronide G1, Inhibition of raloxifene glucuronidation, G1, UGT1A1, G1; inhibitor 50 μM; raloxifene 50 μM, 250 μg/ml Supersomes, 1 mM UDPGA, 15 min
recorded_metric: activity at 15 min, 50 µM (%)

{"compound": "CCCCCCCCOC(=O)c1cc(O)c(O)c(O)c1 [Octyl gallate]", "obs_value": 18}
{"compound": "O=C(O[C@@H]1Cc2c(O)cc(O)cc2O[C@H]1c1cc(O)c(O)c(O)c1)c1cc(O)c(O)c(O)c1 [Gallocatechin gallate]", "obs_value": 30}
{"compound": "O=C(OC[C@H]1O[C@@H](OC(=O)c2cc(O)c(O)c(OC(=O)c3cc(O)c(O)c(O)c3)c2)[C@H](OC(=O)c2cc(O)c(O)c(OC(=O)c3cc(O)c(O)c(O)c3)c2)[C@@H](OC(=O)c2cc(O)c(O)c(OC(=O)c3cc(O)c(O)c(O)c3)c2)[C@@H]1OC(=O)c1cc(O)c(O)c(OC(=O)c2cc(O)c(O)c(O)c2)c1)c1cc(O)c(O)c(OC(=O)c2cc(O)c(O)c(O)c2)c1", "obs_value": 0.4}
{"compound": "CC/C(=C(/CC)c1ccc(O)cc1)c1ccc(O)cc1 [Diethylstilbestrol, reference compound]", "obs_value": 12}
